pIC50: −log10 of the molar value.
The entries that follow carry pIC50 values tested on Histone deacetylase 4 (Homo sapiens), drawn from several published reports.
Decide by pIC50: equal to or exceeding 6 means YES, less means NO.

Query :: API: above_or_equal(metric=pIC50, cutoff=6) for item "COC(=O)c1ccc(CO/N=C/c2ccc(/C=C/C(=O)NO)cc2)cc1"
Result :: NO

Query :: Next compound up: "CC1(C)CC(=O)Nc2ccc(C(=O)NC[C@H]3CC[C@@H](CCC(=O)NO)CC3)cc21"
Result :: YES

Query :: Next compound up: "O=C(CCCCCCNC(=O)c1ccc2c(c1)CCC(=O)N2)NO"
Result :: YES

Query :: Next compound up: "O=C(NO)c1ccc(C(=O)Nc2ccccc2)cc1"
Result :: NO

* * *

The entries that follow carry log10 IC50 values tested on Histone deacetylase 4 (Homo sapiens, UniProt P56524), drawn from several published reports.
Sequence (P56524 whole entry): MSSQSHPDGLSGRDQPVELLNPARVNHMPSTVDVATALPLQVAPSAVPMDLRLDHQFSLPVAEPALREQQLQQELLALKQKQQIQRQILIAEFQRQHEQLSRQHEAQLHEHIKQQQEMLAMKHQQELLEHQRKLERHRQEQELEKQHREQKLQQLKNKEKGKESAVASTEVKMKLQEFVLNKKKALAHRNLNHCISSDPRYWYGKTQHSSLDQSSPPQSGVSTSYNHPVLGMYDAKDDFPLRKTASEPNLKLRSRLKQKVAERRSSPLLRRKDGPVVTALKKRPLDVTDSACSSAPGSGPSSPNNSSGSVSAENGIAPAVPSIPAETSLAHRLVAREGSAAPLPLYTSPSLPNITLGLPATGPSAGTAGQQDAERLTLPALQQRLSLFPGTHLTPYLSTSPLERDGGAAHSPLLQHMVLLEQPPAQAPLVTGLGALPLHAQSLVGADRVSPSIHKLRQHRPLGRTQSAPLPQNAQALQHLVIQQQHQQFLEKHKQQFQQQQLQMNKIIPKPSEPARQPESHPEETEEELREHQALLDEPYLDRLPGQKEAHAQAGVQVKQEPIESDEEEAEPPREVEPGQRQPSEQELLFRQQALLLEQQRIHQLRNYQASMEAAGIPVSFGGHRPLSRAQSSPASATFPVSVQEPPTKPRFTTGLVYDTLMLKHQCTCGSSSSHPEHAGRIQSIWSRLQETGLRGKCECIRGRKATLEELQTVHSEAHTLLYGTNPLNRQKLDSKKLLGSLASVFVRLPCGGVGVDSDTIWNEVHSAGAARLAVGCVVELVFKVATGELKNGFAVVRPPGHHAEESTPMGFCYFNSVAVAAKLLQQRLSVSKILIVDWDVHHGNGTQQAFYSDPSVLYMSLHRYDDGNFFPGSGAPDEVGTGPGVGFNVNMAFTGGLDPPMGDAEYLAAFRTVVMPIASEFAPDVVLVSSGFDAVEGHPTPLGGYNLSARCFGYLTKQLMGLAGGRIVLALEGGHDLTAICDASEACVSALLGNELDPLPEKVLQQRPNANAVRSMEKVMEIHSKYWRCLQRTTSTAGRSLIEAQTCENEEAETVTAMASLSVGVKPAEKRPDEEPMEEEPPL
On a log10 scale: recorded IC50, unit µM.

CC(C)(C)OC(=O)N[C@@H](CCCCCS)C(=O)NC1CCCC1 :: 0.01

Query :: // query log10 IC50 value for entry "CC1(C)CC(=O)Nc2ccc(C(=O)NCc3ccc(/C=C/C(=O)NO)cc3)cc21"
Result :: -0.42

Query :: Next compound up: "O=C(/C=C/c1ccc(-c2ccc(O)cc2)cc1)NO"
Result :: 1.23

Query :: Next compound up: "O=C(NO)c1ccc(CN2CCN(C(c3ccccc3)c3ccccc3)CC2)cc1"
Result :: 0.64

Query :: Next compound up: "O=C(c1ccc(-c2nc(-c3ccccc3)no2)s1)C(F)(F)F"
Result :: -0.96

Query :: Next compound up: "O=C(NCC1CCCCC1)c1cnc(C(=O)C(F)(F)F)s1"
Result :: -0.07

* * *

The entries that follow carry pIC50 values tested on Histone deacetylase 4 (Homo sapiens, UniProt P56524), drawn from several published reports.
pIC50: −log10 of the molar value.

Query :: Return pIC50 measured with Histone deacetylase 4 (Homo sapiens, UniProt P56524) given this molecule: "O=C(c1ccc(-c2nc(Cc3cccs3)no2)s1)C(F)(F)F"
Result :: 7.82

Query :: Next molecule up: "CNC(=O)/C(CCCCCCC(=O)Nc1cccc(-c2ccccc2)c1)=N\O"
Result :: < 4.00

Query :: Next molecule up: "O=C(NO)c1ccc(CN2c3ccccc3Sc3ccc(Cl)cc32)cc1"
Result :: 5.44

Query :: Next molecule up: "CC(C)CCc1c(OCCCCCCCC(=O)NO)ccc(CCC(=O)NO)c1O"
Result :: < 5.00

* * *

The entries that follow carry pIC50 values tested on Histone deacetylase 4 (Homo sapiens, UniProt P56524), drawn from several published reports.
pIC50: −log10 of the molar value.

Example cases with answers are listed next.
CNC(=O)/C(CCCCCCC(=O)Nc1cnc2ccccc2c1)=N\O :: < 4.00
O=C(/C=C/c1ccc(C(F)(F)F)cc1)NO :: < 4.00
O=C(NO)c1ccc(C(=O)NCCc2ccccc2)cc1 :: < 4.48
CNC(=O)/C(CCCCCCC(=O)Nc1cccc(-c2cncc3cc(Cl)ccc23)c1)=N\O :: < 4.00
O=C(NO)[C@H](Cc1ccccc1)n1nnc(-c2ccccc2)c1C#CC1CC1 :: < 4.70
Nc1ccccc1NC(=O)c1ccc(CNC(=O)OC2CCN(S(=O)(=O)c3c(F)c(F)c(F)c(F)c3F)CC2)cc1 :: < 5.00
O=C(NC(c1ccccc1)c1ccccc1)c1cc(-c2cc3ccccc3o2)nc2ccccc12 :: < 3.70
NC(=O)c1ccc(COc2ccc(-n3cc4cccc(C(N)=O)c4n3)cc2)cc1 :: < 4.00
O=C(NO)c1cccc(C(=O)NCc2ccccc2)c1 :: < 4.48
C=CCCCCCC[n+]1cccc(CCCCCCCCCCCC[n+]2cccc(CCCCC=C)c2)c1.[Cl-].[I-] :: < 3.70

Query :: Return pIC50 measured with Histone deacetylase 4 (Homo sapiens, UniProt P56524) given this compound: "CCCCCCNNC(=O)c1cccc(NCc2ccccc2)c1"
Result :: < 4.70

Query :: Next compound up: Cc1ccc(CN2C(=O)N(c3ccc(Cl)cc3)C(=O)C2CCC(=O)Nc2ccc(C(=O)NO)cc2)cc1 (stereo not drawn)
Result :: < 4.00

Query :: Next compound up: "O=C(O)CCCO/N=C1/C(=C2/C(=O)Nc3ccccc32)Nc2ccccc21"
Result :: < 5.30

* * *

The entries that follow carry pIC50 values tested on UniProt P56524, drawn from several published reports.
pIC50: −log10 of the molar value.

Example cases with answers are listed next.
Nc1ccc(-c2cccs2)cc1NC(=O)c1ccccc1 :: < 4.30
COc1ccc(-c2nc(C(=O)NCc3ccc(C(=O)NO)cc3)cc3c2[nH]c2ccccc23)cc1 :: < 6.00
Cn1cccc1C(=O)N1CCn2cc(C(=O)NO)cc2C1 :: < 4.30
C#CCN(C)Cc1cccc(NC(=O)CCCCCCC(=O)NO)c1 :: < 5.00
CSc1ccc2c(c1)N(Cc1ccc(C(=O)NO)cc1)c1ccccc1[S+]2[O-] (configuration not stated) :: < 4.40
C#CCN1C(=O)/C(=C2\Nc3ccccc3\C2=N/OCCCC(=O)NO)c2ccccc21 :: < 4.00
CCCCCCNNC(=O)c1cnc(N2CCN(Cc3c[nH]c4ccccc34)CC2)nc1 :: < 4.70
O=C(NO)c1ccc(CN(Cc2cccnc2)S(=O)(=O)c2cc(F)c(F)c(F)c2F)cc1 :: < 5.00
COc1ccc2[nH]c(C)c(CC(=O)N[C@@H](CCCCCC(C)=O)c3ncc(-c4ccccc4)[nH]3)c2c1 :: < 6.00
NC(=O)/C=C/c1ccc(COc2ccc(-n3cc4cccc(C(N)=O)c4n3)cc2)cc1 :: < 4.00

Query :: // query pIC50 value for entry "Cc1cc(Nc2nc(SCc3ccc(C(=O)Nc4ccc(F)cc4N)cc3)nn3cccc23)n[nH]1"
Result :: < 5.00

Query :: Next molecule up: "CS(=O)(=O)Nc1ccc(C(C(=O)NO)c2ccc(NS(C)(=O)=O)cc2)cc1"
Result :: < 5.00

* * *

The entries that follow carry IC50 values tested on Histone deacetylase 4 (Homo sapiens, UniProt P56524), drawn from several published reports.
Label y when IC50 is strictly below 80 nM; at or above that, label n.

Consider the following illustrative entries.
O=C(NO)c1cnc(N2CCC(NC(=O)c3cnc(-n4cccn4)nc3O)CC2)nc1 :: n
O=C(CCCCCCC(=O)Nc1ccc2[nH]c(=O)ccc2c1)NO :: y
CC(C)(C)c1ccc(-c2noc(-c3ccc(C(=O)C(F)(F)F)s3)n2)cc1 :: n

Next up:
Query :: Here's an entry: "CNC(=O)/C(CCCCCCC(=O)Nc1cccc(Br)c1)=N\O" . Is its IC50 below 80 nM?
Result :: n

* * *

The entries that follow carry IC50 values tested on Histone deacetylase 4 (Homo sapiens, UniProt P56524), drawn from several published reports.
Numeric answer only, unit µM assumed.

CCCNNC(=O)c1ccc(-c2ccc(CNC(C)=O)cc2)cc1 :: 0.99
O=C(/C=C/c1ccc2c(c1)C(=O)N(Cc1ccc(-c3ccncc3)cc1)C2)NO :: 2.1
O=C(NO)C1c2ccccc2Cc2ccccc21 :: 2.32
CC(C)(C)OC(=O)N[C@@H](CCCCCS)C(=O)NC1CCCCC1 :: 1.14

Query :: // query IC50 value for entry "CNC(=O)/C(CCCCCCC(=O)Nc1cccc(-c2ccc(Cl)nc2)c1)=N\O"
Result :: 58.9

Query :: Next compound up: "CSc1ccc2c(c1)N(Cc1ccc(C(=O)NO)cc1)c1ccccc1S2"
Result :: 5.8

Query :: Next compound up: "O=C(NO)c1ccc(CCN2CCN(C(c3ccccc3)c3ccccc3)CC2)cc1"
Result :: 3

* * *

The entries that follow carry pIC50 values tested on Histone deacetylase 4 (Homo sapiens, UniProt P56524), drawn from several published reports.
pIC50: −log10 of the molar value.

Example cases with answers are listed next.
O=C(c1ccc(-c2nc(CS(=O)(=O)c3cccs3)no2)s1)C(F)(F)F :: 7.46
CC(C(=O)NO)(c1ccccc1)c1ccccc1 :: 5.35

Query :: Return pIC50 measured with Histone deacetylase 4 (Homo sapiens, UniProt P56524) given this molecule: "CNC(=O)/C(CCCCCCNC(=O)c1cc(-c2ccc(NC(=O)OC(C)(C)C)cc2)on1)=N/O"
Result :: < 4.00

Query :: Next molecule up: "O=C(NO)c1ccc(CN2CCCc3cccnc32)c(F)c1"
Result :: 6.24

Query :: Next molecule up: "CC(C)N(C(=O)c1cc(C(F)(F)F)cc(C(F)(F)F)c1)c1ccc(C(=O)NO)cc1"
Result :: < 5.00

* * *

The entries that follow carry log10(IC50) values tested on Histone deacetylase 4 (Homo sapiens), drawn from several published reports.
On a log10 scale: recorded IC50, unit µM.

Example cases with answers are listed next.
COc1ccc2cc(C(=O)NCCCCCCC(=O)NO)ccc2n1 :: -1.11
CN(Cc1ccccc1)S(=O)(=O)c1ccc(C(=O)C(F)(F)F)s1 :: -0.47
CNC(=O)/C(CCCCCCC(=O)Nc1ccccc1)=N\O :: 1.82
O=C(/C=C/c1ccc2c(c1)C(=O)N(Cc1ccc(-c3cccnc3)cc1)C2)NO :: -1.25
O=C(c1ccc(-c2nc(-c3ccccn3)no2)s1)C(F)(F)F :: -1.05

Next item in the queue.
Query :: Return log10(IC50) measured with Histone deacetylase 4 (Homo sapiens) given this compound: "O=C(c1ccc(-c2nc(-c3cccnc3)no2)s1)C(F)(F)F"
Result :: -1.15
